Numbers sourced from patent US11752138B2.

pIC50: −log10 of the molar value.
Dear all, this message contains pIC50 results, target or system Human LDHA (Homo sapiens (Human), UniProt P00338).

>>> result("NS(=O)(=O)c1ccc(Cc2c(-c3ccc(F)c(C4=CCC(C(F)(F)F)CC4)c3)nn(-c3nc(C(=O)O)cs3)c2CC2CC2)cc1F (stereo not drawn)")
"> 7.00"
>>> result("N#Cc1cccc(-c2cc(-c3nn(-c4nc(C(=O)O)cs4)c(CC4CC4)c3Cc3ccc(S(N)(=O)=O)c(F)c3)ccc2F)c1")
"> 7.00"
>>> result("NS(=O)(=O)c1ccc(Cc2c(-c3ccc(F)c(N4CCCC4=O)c3)nn(-c3nc(C(=O)O)cs3)c2CC2CC2)cc1F")
"> 7.00"
>>> result("Cc1ccc(-c2cccc(-c3nn(-c4nc(C(=O)O)cs4)c(CC4CC4)c3Cc3ccc(S(N)(=O)=O)c(F)c3)c2)cn1")
"> 7.00"
>>> result("Cc1ccc(C#Cc2cccc(-c3nn(-c4nc(C(=O)O)co4)c(CC4CC4)c3Cc3ccc(S(N)(=O)=O)c(F)c3)c2)s1")
"> 7.00"

We next turn to a different compound, shown below.
// fetch Human LDHA (Homo sapiens (Human), UniProt P00338) pIC50 for Cc1ccc(C#Cc2cccc(-c3nn(-c4nc(C(=O)O)cs4)c(C4CC4C4CC4)c3Cc3ccc(S(N)(=O)=O)c(F)c3)c2)s1 (stereo not drawn)
6.00 to 7.00
